Source listed as patent US20120172293A1.

# measured.target: T1, human Y2 receptor (human, UniProt P49146 1-381)
# T1 construct: whole, on cells; used as membrane fraction of hY2R/CHO cells; also called human NPY2R; hY2R
# T1 sequence (looked up): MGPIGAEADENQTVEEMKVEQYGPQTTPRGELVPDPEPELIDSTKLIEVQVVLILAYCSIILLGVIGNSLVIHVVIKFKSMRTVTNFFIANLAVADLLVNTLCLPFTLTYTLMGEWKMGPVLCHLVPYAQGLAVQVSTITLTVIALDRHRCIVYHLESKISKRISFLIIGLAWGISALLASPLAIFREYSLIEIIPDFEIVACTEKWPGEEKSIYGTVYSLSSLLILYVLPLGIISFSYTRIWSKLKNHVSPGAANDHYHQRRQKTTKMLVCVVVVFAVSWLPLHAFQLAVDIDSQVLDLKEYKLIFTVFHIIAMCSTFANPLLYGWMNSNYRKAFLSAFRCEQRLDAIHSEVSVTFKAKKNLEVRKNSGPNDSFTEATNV
# protocol: RBA: [125I]-PYY displacement, hY2R/CHO membranes
Non-standard residues stand in square brackets, D forms with d. No end group written: not given here. 4Amb = NCc1ccc(C(=O)O)cc1
parameter.measured: IC50 Ratio (vs PYY(3-36)) (ratio)
Numeric only. Scale: ratio

Challenge: Fill in: IC50 Ratio (vs PYY(3-36)) of [4Amb]KAYINLITRQRY-NH2 (N-terminus assumed; SMILES CC[C@H](C)[C@H](NC(=O)[C@H](Cc1ccc(O)cc1)NC(=O)[C@H](C)NC(=O)[C@H](CCCCN)NC(=O)c1ccc(CN)cc1)C(=O)N[C@@H](CC(N)=O)C(=O)N[C@@H](CC(C)C)C(=O)N[C@H](C(=O)N[C@H](C(=O)N[C@@H](CCCNC(=N)N)C(=O)N[C@@H](CCC(N)=O)C(=O)N[C@@H](CCCNC(=N)N)C(=O)N[C@@H](Cc1ccc(O)cc1)C(N)=O)[C@@H](C)O)[C@@H](C)CC, also called compound No. 49) [4-Aminomethylbenzoyl-[Lys25, Ala26, Ile28,31]-PYY(25-36)] is ___
Response given: 34
